# key: entry, value: AC50
- tested-system: Full length WRN protein (aa 2-1432) (Homo sapiens (Human), UniProt Q14191)
- Sequence (Q14191 2-1432): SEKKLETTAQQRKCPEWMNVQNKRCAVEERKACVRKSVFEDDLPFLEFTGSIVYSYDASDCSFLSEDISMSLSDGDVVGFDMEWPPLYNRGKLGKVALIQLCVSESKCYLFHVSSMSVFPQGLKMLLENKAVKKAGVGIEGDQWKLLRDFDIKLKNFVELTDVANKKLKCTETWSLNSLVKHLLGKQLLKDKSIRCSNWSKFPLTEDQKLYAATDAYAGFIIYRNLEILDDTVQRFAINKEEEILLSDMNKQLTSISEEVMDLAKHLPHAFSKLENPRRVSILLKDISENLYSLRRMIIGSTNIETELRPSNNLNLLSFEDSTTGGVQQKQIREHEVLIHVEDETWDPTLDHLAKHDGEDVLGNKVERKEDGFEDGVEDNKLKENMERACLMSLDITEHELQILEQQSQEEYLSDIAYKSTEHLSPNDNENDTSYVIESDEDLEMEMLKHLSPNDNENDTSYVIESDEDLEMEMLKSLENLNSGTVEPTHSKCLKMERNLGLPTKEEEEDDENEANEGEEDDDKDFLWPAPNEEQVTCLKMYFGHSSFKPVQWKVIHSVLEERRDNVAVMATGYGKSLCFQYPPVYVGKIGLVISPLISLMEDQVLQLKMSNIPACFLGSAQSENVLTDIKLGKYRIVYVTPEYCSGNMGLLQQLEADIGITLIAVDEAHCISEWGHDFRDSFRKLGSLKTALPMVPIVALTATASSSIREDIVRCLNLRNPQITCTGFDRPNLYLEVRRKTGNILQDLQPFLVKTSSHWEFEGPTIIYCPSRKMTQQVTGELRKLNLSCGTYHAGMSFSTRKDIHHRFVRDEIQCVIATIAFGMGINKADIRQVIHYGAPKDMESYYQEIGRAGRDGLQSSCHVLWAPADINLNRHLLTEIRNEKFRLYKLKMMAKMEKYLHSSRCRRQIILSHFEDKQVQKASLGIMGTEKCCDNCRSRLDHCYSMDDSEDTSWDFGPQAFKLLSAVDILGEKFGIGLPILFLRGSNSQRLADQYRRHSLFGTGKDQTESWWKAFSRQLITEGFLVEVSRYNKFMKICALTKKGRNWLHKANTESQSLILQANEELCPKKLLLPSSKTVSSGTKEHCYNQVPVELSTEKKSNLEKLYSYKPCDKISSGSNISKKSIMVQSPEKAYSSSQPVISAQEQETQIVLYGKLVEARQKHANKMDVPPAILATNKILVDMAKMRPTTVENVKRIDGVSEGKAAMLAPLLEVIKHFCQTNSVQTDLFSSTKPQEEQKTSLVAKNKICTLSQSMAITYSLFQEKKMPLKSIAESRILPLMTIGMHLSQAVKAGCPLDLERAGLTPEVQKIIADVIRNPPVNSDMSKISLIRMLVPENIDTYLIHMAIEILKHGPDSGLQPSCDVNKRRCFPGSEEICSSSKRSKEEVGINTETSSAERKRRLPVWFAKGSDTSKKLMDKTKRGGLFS
- procedure-details: WRN ATPase ADP-Glo biochemical assay, Assay Format A (10 μM ATP)
- assay-conditions: 0.25 nM WRN, 100 nM C6.18 ssDNA, 30 min preincubation, read-out: ATPase ADPGlo AC50 (uM)- Assay Format A

Look at this compound and give its reported AC50. C=CC(=O)N1CCc2nn(-c3ccc(C(C)C)cc3)c3c2C(C1)N(C(=O)c1ncc(Br)c2[nH]cnc12)CC3 (stereo not drawn) [Compound 10]
< 0.0015 µM

Look at this compound and give its reported AC50. C=CC(=O)N1CCOc2nn(-c3ccc(C4CCC4)cc3O)c3c2C(C1)N(C(=O)c1ccc(Br)c2[nH]cnc12)CC3 (stereo not drawn) [Compound 39]
0.0015 to 0.005 µM

Look at this compound and give its reported AC50. C=CC(=O)N1CC(OCc2nnc(C)s2)c2nn(-c3ccc(C4CC4)cc3)c3c2C(C1)N(C(=O)c1cnc(C(F)(F)F)cc1N)CC3 (stereo not drawn) [Compound 249]
< 0.0015 µM

* * *

# key: entry, value: AC50
- tested-system: Full length WRN protein (aa 2-1432) (Homo sapiens (Human))
- procedure-details: WRN ATPase ADP-Glo biochemical assay, Assay Format B (100 μM ATP)
- assay-conditions: 0.25 nM WRN, 100 nM C6.18 ssDNA, 60 min preincubation, read-out: ATPase ADPGlo AC50 (uM)- Assay Format B

> print(dat)
                                   compound             result
1  C=CC(=O)N1CCc2nn(-c3ccc(C45CC(C4)C5)nc3)c3c2C(C1)N(C(=O)c1ccc(Br)c2[nH]cnc12)CC3 (stereo not shown)         > 0.055 µM
2  C=CC(=O)N1CCc2nn(-c3ccc(C4CCC4)cc3O)c3c2C(C1)N(C(=O)c1ccc(OC(F)(F)F)cc1)CC3 (stereo not shown)  0.015 to 0.055 µM
3  C=CC(=O)N1CCc2nn(-c3ccc(C(C)C)cc3)c3c2C(C1)N(C(=O)c1ccc(Br)c2[nH]cnc12)CC3 (stereo not shown)  0.005 to 0.015 µM
4  C=CC(=O)N1CCc2nn(-c3ccc(C4CC4)cc3)c3c2C(C1)N(C(=O)c1cnc(C(F)(F)F)c(F)c1N)CC3 (stereo not shown)  0.005 to 0.015 µM
5  C=CC(=O)N1CCc2nn(-c3ccc(C(C)C)cc3)c3c2C(C1C)N(C(=O)c1cnc(C(F)(F)F)cc1N)CC3 (stereo not shown)  0.005 to 0.015 µM

Entry C=CC(=O)N1CCc2nn(-c3ccc(C4CC4)cc3O)c3c2C(C1)N(C(=O)c1nnc(Br)cc1N)CC3 (stereo not shown) , system Full length WRN protein (aa 2-1432) (Homo sapiens (Human)): what AC50 was measured?
0.0015 to 0.005 µM

Entry C=CC(=O)N1CCOc2nn(-c3ccc(C4CC4)cc3)c3c2C(C1)N(C(=O)c1ccc(C(F)(F)F)c2[nH]ncc12)CC3 (stereo not shown) , system Full length WRN protein (aa 2-1432) (Homo sapiens (Human)): what AC50 was measured?
0.015 to 0.055 µM

Entry C=CC(=O)N1CCc2nn(-c3ccc(C(C)C)cc3)c3c2C(C1)N(C(=O)c1ccc(C(F)(F)F)nc1)CC3 (stereo not shown) , system Full length WRN protein (aa 2-1432) (Homo sapiens (Human)): what AC50 was measured?
0.015 to 0.055 µM

Entry C=CC(=O)N1CC(C)c2nn(-c3ccc(C4CC4)cc3O)c3c2C(C1)N(C(=O)c1cnc(C(F)(F)F)cc1N)CC3 (stereo not shown) [Compound 189] , system Full length WRN protein (aa 2-1432) (Homo sapiens (Human)): what AC50 was measured?
0.005 to 0.015 µM

Entry C=CC(=O)N1CCc2nn(-c3ccc(C4CC4)c(F)c3O)c3c2C(C1)N(C(=O)c1cnc(C(F)(F)F)cc1N)CC3 (stereo not shown) , system Full length WRN protein (aa 2-1432) (Homo sapiens (Human)): what AC50 was measured?
0.005 to 0.015 µM

Entry C=CC(=O)N1CC(C)c2nn(-c3ccc(C4CC4)cc3O)c3c2C(C1)N(C(=O)c1cnc(Br)cc1N)CC3 (stereo not shown) , system Full length WRN protein (aa 2-1432) (Homo sapiens (Human)): what AC50 was measured?
0.005 to 0.015 µM

Entry C=CC(=O)N1CCc2nn(-c3ccc(C4CC4)cc3)c3c2C(C1)N(C(=O)c1ccc(C(F)(F)F)nc1O)CC3 (stereo not shown) , system Full length WRN protein (aa 2-1432) (Homo sapiens (Human)): what AC50 was measured?
0.015 to 0.055 µM

Entry C=CC(=O)N1CC(C)Oc2nn(-c3ccc(C(C)C)cc3)c3c2C(C1)N(C(=O)c1ccc(Br)c2[nH]cnc12)CC3 (stereo not shown) [Compound 53] , system Full length WRN protein (aa 2-1432) (Homo sapiens (Human)): what AC50 was measured?
> 0.055 µM

* * *

# key: entry, value: AC50
- tested-system: Full length WRN protein (aa 2-1432) (Homo sapiens (Human))
- procedure-details: WRN ATPase ADP-Glo biochemical assay, Assay Format A (10 μM ATP)
- assay-conditions: 0.25 nM WRN, 100 nM C6.18 ssDNA, 30 min preincubation, read-out: ATPase ADPGlo AC50 (uM)- Assay Format A

The cases that follow already have their AC50 on record.
> print(dat)
                                   compound  endpoint.label              result
1  C=CC(=O)N1CCc2nn(-c3ccc(C4CC4)c(F)c3O)c3c2C(C1)N(C(=O)c1cnc(C(F)(F)F)c(O)c1)CC3 (stereo not shown)            AC50  0.0015 to 0.005 µM
2  C=CC(=O)N1CCc2nn(-c3ccc(C4CC4)c(F)c3O)c3c2C(C1)N(C(=O)c1cnc(OC(F)(F)F)c(F)c1N)CC3 (stereo not shown)            AC50   0.005 to 0.015 µM
3  C=CC(=O)N1CCc2nn(-c3ccc(C(C)C)cc3)c3c2C(C1)N(C(=O)c1ccc(Br)c2ncn(CC4CCO4)c12)CC3 (stereo not shown) [Compound 83]            AC50   0.005 to 0.015 µM

Look at this compound and give its reported AC50. C=CC(=O)N1Cc2nn(-c3ccc(C(C)C)cc3C)c3c2C(C1)N(C(=O)c1ccc(Br)c(O)c1)CC3 (stereo not shown)
0.005 to 0.015 µM

* * *

# key: entry, value: AC50
- tested-system: Full length WRN protein (aa 2-1432) (Homo sapiens (Human), UniProt Q14191)
- procedure-details: WRN ATPase ADP-Glo biochemical assay, Assay Format B (100 μM ATP)
- assay-conditions: 0.25 nM WRN, 100 nM C6.18 ssDNA, 60 min preincubation, read-out: ATPase ADPGlo AC50 (uM)- Assay Format B

The cases that follow already have their AC50 on record.
> print(dat)
                                   compound  endpoint.label             result
1  C=CC(=O)N1CCc2nn(-c3ccc(C45CC(C4)C5)cc3O)c3c2C(C1)N(C(=O)c1cnc(C(F)(F)F)c(O)c1)CC3 (stereo not shown) [Compound 92]            AC50  0.015 to 0.055 µM
2  C=CC(=O)N1CCc2nn(-c3ccc(C4CCC4)cc3O)c3c2C(C1)N(C(=O)c1ccc(Br)c2[nH]c(OC(F)F)nc12)CC3 (stereo not shown) [Compound 88]            AC50  0.005 to 0.015 µM
3  C=CC(=O)N1CCc2nn(-c3ccc(C45CC(C4)C5)cc3F)c3c2C(C1)N(C(=O)c1ccc(Br)c2[nH]cnc12)CC3 (stereo not shown) [Compound 30]            AC50  0.005 to 0.015 µM
4  C=CC(=O)N1CCc2nn(-c3ccc(SC(F)(F)F)cc3O)c3c2C(C1)N(C(=O)c1cnc(C(F)(F)F)cc1N)CC3 (stereo not shown) [Compound 226]            AC50  0.005 to 0.015 µM

Look at this compound and give its reported AC50. C=CC(=O)N1CCc2nn(-c3ccc(C45CC(C4)C5)cc3)c3c2C(C1)N(C(=O)c1ccc(Br)c2[nH]cnc12)CC3 (stereo not shown) [Compound 4]
0.015 to 0.055 µM

Look at this compound and give its reported AC50. C=CC(=O)N1CCc2nn(-c3ccc(C4CC4)cc3)c3c2C(C1)N(C(=O)c1c(N)cc(Br)c2[nH]cnc12)CC3 (stereo not shown) [Compound 188]
0.0015 to 0.005 µM

Look at this compound and give its reported AC50. C=CC(=O)N1CCc2nn(-c3ccc(C4CC4)cc3O)c3c2C(C1)N(C(=O)c1cnc(Br)cc1N)CC3 (stereo not shown) [Compound 191]
0.005 to 0.015 µM

Look at this compound and give its reported AC50. C=CC(=O)N1CCc2nn(-c3ccc(C4CC4)cc3O)c3c2C(C1)N(C(=O)c1cnc(C(F)(F)F)c(O)c1)CC3 (stereo not shown) [Compound 175]
0.0015 to 0.005 µM

Look at this compound and give its reported AC50. C=CC(=O)N1CCc2nn(-c3ccc(C(C)C)cc3)c3c2C(C1)N(C(=O)c1ccc(Br)c2ncn(CCOC)c12)CC3 (stereo not shown) [Compound 73]
0.015 to 0.055 µM
